# Test system: ENR+CD organoids
# experimental.protocol: Primary screen: ATP (CellTiter-Glo 3D, CTG) cell number/viability, 2.5-D 384-well ENR+CD organoids;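 also: compounds given at plating and again on day 3 over a 6-day differentiation from ENR+CV stem-cell-enriched precursors, ATP measured on day 6, plate median as control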
# measurement.conditions: primary screen, dose 10.00 uM, standard z score
Outcome: Satisfied for Z.CTG of at least -0.1; Not satisfied for anything lower.

Please review the entries below; each comes with its answer.
CC(C)[C@H](O)C(=O)N[C@@H](C)C(=O)N[C@@H]1C(=O)N(C)CCc2ccccc21    Not satisfied
N#CSc1cc(SC#N)c(N)nc1N    Not satisfied
O=C(NCc1cccc(O)c1)Nc1nc(-c2ccncc2)cs1    Not satisfied
Cl.Cl.NC1(c2ccc(-c3nc4ccn5c(=O)[nH]nc5c4cc3-c3ccccc3)cc2)CCC1 [MK-2206 2HCl]    Not satisfied
COc1c(C)c(C(=O)c2ccc(N)c(C(=O)[O-])c2)n2ccccc12.[Na+] [SSR128129E]    Satisfied
O=C(Nc1ccccc1-c1cn2c(CN3CCNCC3)csc2n1)c1cnc2ccccc2n1    Not satisfied
NCC(=O)Nc1ccc(-n2nc(C(F)(F)F)cc2-c2ccc3c(ccc4ccccc43)c2)cc1    Satisfied
COc1ccc(CNCc2cccc3ccccc23)cc1.Cl [ML133 HCl]    Satisfied

Please check the record CN1C(=O)C(Cc2c[nH]c3ccccc23)NC1=S (centres unmarked) and state if its Z.CTG is at or above -0.1.
Satisfied

Also C[S+]([O-])c1ccc(-c2nc(-c3ccc(F)cc3)c(-c3ccncc3)[nH]2)cc1 (centres unmarked) ?
Satisfied
